Where do the numbers come from? From PubChem BioAssay.

- procedure.summary: small-molecule microarray binders of probe aDKK1, primary screen, biochemical, biotinylated probe, 635/667 nm fluorescence (AID 1099);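 note: score merges 667nm spot fluorescence with signal to noise across triplicate slides; reference of the scale not given here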
- setup.conditions: higher = more signal
Measured composite z-score values are reported for all entries that follow.
A bare number is all that is needed in reply.

C[C@@H](c1ccccc1)N1C(=O)[C@H]2[C@H]3[C@H](O)C=CC(=O)[C@@H]3CC[C@H]2C1=O
-0.293

So what does the record say about composite z-score for `COCCOC(=O)N1C(=O)[C@@]2(c3cc(C#CCNC(N)=O)ccc31)[C@H](c1ccc(O)cc1)N1[C@H](c3ccccc3)[C@H](c3ccccc3)OC(=O)[C@H]1[C@@H]2C(=O)N1CCCCCCC1` ?
0.614

So what does the record say about composite z-score for `COCCOC(=O)N1C(=O)[C@@]2(c3cc(C#CC4(O)CCCCCC4)ccc31)[C@H](c1ccc(OCCO)cc1)N1[C@H](c3ccccc3)[C@H](c3ccccc3)OC(=O)[C@H]1[C@@H]2C(=O)NC[C@H](O)c1ccccc1` ?
0.0678
